Target: ARH3^WT (Homo sapiens, UniProt Q9NX46)
Construct: we determined the structure of full-length ARH3 in complex with ADPR and Ca^2+; made in house
Sequence (Q9NX46 whole entry): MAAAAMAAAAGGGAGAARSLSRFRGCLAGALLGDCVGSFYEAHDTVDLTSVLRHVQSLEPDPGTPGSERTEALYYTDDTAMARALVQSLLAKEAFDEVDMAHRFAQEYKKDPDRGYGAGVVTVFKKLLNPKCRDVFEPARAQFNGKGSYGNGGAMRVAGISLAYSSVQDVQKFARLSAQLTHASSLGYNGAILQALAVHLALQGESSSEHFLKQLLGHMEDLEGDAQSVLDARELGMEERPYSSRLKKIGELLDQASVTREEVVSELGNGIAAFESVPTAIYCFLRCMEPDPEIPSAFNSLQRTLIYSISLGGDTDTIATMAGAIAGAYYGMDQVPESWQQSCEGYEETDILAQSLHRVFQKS
Assay: Isothermal titration calorimetry (ITC) of ADPR binding to ARH3^WT
Conditions: 5 mM EDTA (metal-free), 25 °C, pH 7.5
measurement_name: Kd

Quick check: Kd of Nc1ncnc2c1ncn2[C@@H]1O[C@H](COP(=O)(O)OP(=O)(O)OC[C@H]2OC(O)[C@H](O)[C@@H]2O)[C@@H](O)[C@H]1O (stereo partly shown) ?
80.7 µM

###

Target: ARH3^WT (Homo sapiens)
Construct: we determined the structure of full-length ARH3 in complex with ADPR and Ca^2+; made in house
Test: Isothermal titration calorimetry (ITC) of ADPR binding to ARH3^WT
Conditions: 5 mM Ca^2+, 25 °C, pH 7.5
measurement_name: Kd (µM)
Use µM as the unit, but write only the number.

Form field: Kd recorded for Nc1ncnc2c1ncn2[C@@H]1O[C@H](COP(=O)(O)OP(=O)(O)OC[C@H]2OC(O)[C@H](O)[C@@H]2O)[C@@H](O)[C@H]1O (stereo partly shown) with ARH3^WT (Homo sapiens) (enter value)
7.81
